assay-system: Melanin-concentrating hormone receptor 1 (Homo sapiens, UniProt Q99705)
Sequence (Q99705 whole entry): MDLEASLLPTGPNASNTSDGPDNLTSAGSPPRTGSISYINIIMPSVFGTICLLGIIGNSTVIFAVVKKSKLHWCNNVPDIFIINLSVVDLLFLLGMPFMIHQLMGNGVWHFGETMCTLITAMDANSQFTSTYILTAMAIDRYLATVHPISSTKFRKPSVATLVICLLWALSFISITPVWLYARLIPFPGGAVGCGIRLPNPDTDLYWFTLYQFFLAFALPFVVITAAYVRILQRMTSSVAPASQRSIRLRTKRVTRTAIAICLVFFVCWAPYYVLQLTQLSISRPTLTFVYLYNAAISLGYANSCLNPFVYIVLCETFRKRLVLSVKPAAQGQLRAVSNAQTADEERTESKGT
method: Binding affinity to human MCHr1 from neuronal IMR32 cells
Type: cell-based, IMR-32
assay-metric: IC50 (nM)

O=C(CN1CCOCC1)n1nc(NC2CCN(Cc3ccc4c(c3)OCO4)CC2)c2cc(Cl)ccc21    20
c1ccc2c(NC3CCN(Cc4ccc5c(c4)OCO5)CC3)[nH]nc2c1    440
Clc1ccc2c(c1)c(NC1CCN(Cc3ccc4c(c3)OCO4)CC1)nn2Cc1cccnc1    20
COc1ccc(CN2CCC(Nc3[nH]nc4ccc(Cl)cc34)CC2)c(F)c1    240
Clc1ccc2[nH]nc(NC3CCN(Cc4ccccc4)CC3)c2c1    850
O=[N+]([O-])c1ccc2[nH]nc(NC3CCN(Cc4ccc5c(c4)OCCO5)CC3)c2c1    30
Clc1ccc2[nH]nc(NC3CCN(Cc4ccc5c(c4)OCO5)CC3)c2c1    20
COc1ccc2c(c1)c(NC1CCN(Cc3ccc4c(c3)OCO4)CC1)nn2C    30
Clc1ccc2[nH]nc(NC3CCN(Cc4ccc5nsnc5c4)CC3)c2c1    50
Clc1ccc2c(c1)c(NC1CCN(Cc3ccc4c(c3)OCO4)CC1)nn2-c1ccccc1    50

[a] Clc1ccc(CN2CCC(Nc3[nH]nc4ccc(Cl)cc34)CC2)cc1
[b] O=[N+]([O-])c1ccc2c(c1)c(NC1CCN(Cc3ccc4c(c3)OCO4)CC1)nn2Cc1ccccc1
Query block: Which shows the larger IC50 value: a or b ? Field: selected label. Fill in the label of the entry you choose.
Result block: a
(a: 200 nM, b: 5 nM)

[I] O=[N+]([O-])c1ccc2[nH]nc(NC3CCN(Cc4ccc5c(c4)OCO5)CC3)c2c1
[II] N#Cc1ccc2[nH]nc(NC3CCN(Cc4ccc5c(c4)OCO5)CC3)c2c1
Query block: Lower value for measured IC50? Options: I , II Field: selected label. Fill in the label of the entry you choose.
Result block: I
(I: 6 nM, II: 220 nM)

[1] Clc1ccc2c(c1)c(NC1CCN(Cc3ccc4c(c3)OCO4)CC1)nn2Cc1ccncc1
[2] Cc1ccc(CN2CCC(Nc3[nH]nc4ccc(Cl)cc34)CC2)cc1C
Query block: Lower value for measured IC50? Options: 1 , 2 Field: selected label. Fill in the label of the entry you choose.
Result block: 1
(1: 7 nM, 2: 100 nM)

====

assay-system: Melanin-concentrating hormone receptor 1 (Homo sapiens, UniProt Q99705)
method: Functional antagonism of MCH-mediated calcium release by FLIPR using human MCHr1 from neuronal IMR32 cells
Type: cell-based, IMR-32
pIC50: −log10 of the molar value.
assay-metric: pIC50

COc1ccc2[nH]nc(NC3CCN(Cc4ccc5c(c4)OCO5)CC3)c2c1    7.22
Clc1ccc2c(c1)c(NC1CCN(Cc3ccc4c(c3)OCO4)CC1)nn2-c1ccccc1    < 5.00

From here, focus on the item given below.
Query block: // query pIC50 value for entry O=C(C1CC1)n1nc(NC2CCN(Cc3ccc4c(c3)OCO4)CC2)c2cc(Cl)ccc21
Result block: < 5.00
